Assay: Effect of compounds on the cytotoxicity of etoposide, wild-type cells
Format: cell-based
Settings: human, HEK293FT wild-type cells; with vehicle (DMSO 1%), HEK293FT WT
experimentalReadout: CC50 at 3 days

COc1cc([C@@H]2c3cc4c(cc3[C@@H](O[C@@H]3O[C@@H]5CO[C@@H](C)O[C@H]5[C@H](O)[C@H]3O)[C@H]3COC(=O)[C@H]23)OCO4)cc(OC)c1O [etoposide] ... 2400 nM

* * *

Assay: Effect of compounds on the cytotoxicity of etoposide, Tdp2 knockout cells
Assay type: cell-based
Details: human, HEK293FT Tdp2 knockout (Tdp2−/−) cells, with vehicle (DMSO 1%)
experimentalReadout: CC50 at 3 days (nM)

COc1cc([C@@H]2c3cc4c(cc3[C@@H](O[C@@H]3O[C@@H]5CO[C@@H](C)O[C@H]5[C@H](O)[C@H]3O)[C@H]3COC(=O)[C@H]23)OCO4)cc(OC)c1O [etoposide] ... 2300

FYI, the data here is from paper PMC10606488.
